- Test system: XF498
- PROTOCOL: NCI tumour cell line growth inhibition, 48 h
Active and inactive are the calls of the source. Cut-off read from the data, not from the text of the source: active = GI50 up to about 1.1 µM and inactive = higher.
PROPERTY_LABEL: GI50

- MOLECULE: "c1ccc2c3nc(C4CCCC4)nc-3c(NC3CCCC3)[nH]c2c1"
  TARGET_SYSTEM: "XF498"
  GI50: "19.6 µM (inactive)"

### Prompt Give GI50 for C1=C(c2ccccc2)CN(c2ccccc2)OC1
### Response > 100 µM (inactive)

### Prompt Give GI50 for O=[N+]([O-])c1ccc(N2C[N+](c3ccccc3)=NC(c3ccccc3)=N2)cc1
### Response 21.4 µM (inactive)

---

- System: OVCAR-3
- PROTOCOL: NCI tumour cell line growth inhibition, 48 h
Active and inactive are the calls of the source. Cut-off read from the data, not from the text of the source: active = GI50 up to about 1.1 µM and inactive = higher.
Quick reference: GI50 of the listed items.

Take a look at these entries with their results.
- MOLECULE: "Cc1cc2nc3c(C(OC4OC(CO)C(O)C(O)C4O)C(O)CO)nn(-c4ccc(F)cc4)c3nc2cc1C (configuration not stated)"
  ASSAY_RESULT: "> 100 µM (inactive)"
- MOLECULE: "COC(=O)CN1c2nc(C#N)c(C#N)nc2N(CC(=O)OC)c2nc(C#N)c(C#N)nc21"
  ASSAY_RESULT: "2.92 µM (inactive)"
- MOLECULE: "O=C1c2[nH]c3ccc(Br)cc3c2CCN1Cc1ccc(Cl)cc1"
  ASSAY_RESULT: "15.2 µM (inactive)"
- MOLECULE: "CCC(/C(=N/NC(=O)C[N+](C)(C)C)c1ccccc1)C1OC(=O)c2ccccc21 (configuration not stated)"
  ASSAY_RESULT: "> 100 µM (inactive)"
- MOLECULE: "CC1=CCC[C@H]2[C@](C)(CC3=CC(=O)C4SCCSC4C3=O)[C@@H](C)CC[C@]12C (some centres not stated)"
  ASSAY_RESULT: "18.5 µM (inactive)"

### Prompt Please report GI50 with OVCAR-3 for item COc1cc(C(=O)NC(CCN)(c2ccccc2)c2ccccc2)cc(OC)c1OC .
### Response 56.8 µM (inactive)

### Prompt Please report GI50 with OVCAR-3 for item O=C(c1ccccc1)c1cc[n+](C2=C([N-]S(=O)(=O)c3ccccc3)C(=O)c3ccccc3C2=O)cc1 .
### Response 3.1 µM (inactive)

### Prompt Please report GI50 with OVCAR-3 for item Cc1nc2ccccc2c(=O)n1-c1ccccc1I .
### Response > 100 µM (inactive)

### Prompt Please report GI50 with OVCAR-3 for item O=C(/C(=N/Nc1cn[nH]c(=O)c1Cl)c1ccccc1)c1ccccc1 .
### Response 18 µM (inactive)

### Prompt Please report GI50 with OVCAR-3 for item C[n+]1cccc2c(=O)c3ccccc3oc21 .
### Response > 100 µM (inactive)

### Prompt Please report GI50 with OVCAR-3 for item CS(=O)(=O)N(CCC#N)c1ccc(/C=C2\N=C(c3ccccc3Cl)OC2=O)cc1 .
### Response > 100 µM (inactive)

### Prompt Please report GI50 with OVCAR-3 for item CCOC(=O)/C(C#N)=C1\N[C@H](C(=O)OCC)CO1 .
### Response > 100 µM (inactive)

---

- Tested on: OVCAR-8
- PROTOCOL: NCI tumour cell line growth inhibition, 48 h
Activity calls are given as the source filed them. Cut-off read from the data, not from the text of the source: active = GI50 up to about 1.1 µM and inactive = higher.
Bench note: report the call from YES = active, NO = inactive

Field: example entries. Status: answers known.
- COMPOUND: "Cn1nc2ccc([N+](=O)[O-])cc2[n+]1[O-]"
  CLASS_ASSIGNMENT: "NO"
- COMPOUND: "COC1CCC(OC2CC(C3(C)CCC4(CC(O)C(C)C(C(C)/C=C(\\C)C(=O)C(C)CC(C)C(=O)O)O4)O3)OC3(OC(C4OC(O)(CO)C(C)CC4C)CC3C)C2C)OC1C (configuration not stated)"
  CLASS_ASSIGNMENT: "YES"
- COMPOUND: "CN(C)C(=S)/N=c1\\ssc(=S)n1Cc1ccncc1"
  CLASS_ASSIGNMENT: "NO"

### Prompt What did the test return for Clc1cc2nc(C3CCCCO3)[nH]c2cc1Cl (configuration not stated) ?
### Response NO

### Prompt What did the test return for COc1nc2c(c(=O)n1C)N[C@H]1[C@H](OC(C)=O)[C@@H](OC(C)=O)CO[C@H]1N2 ?
### Response NO

### Prompt What did the test return for C[n+]1cccc2c(=O)c3ccccc3oc21 ?
### Response NO

### Prompt What did the test return for CCCCSC1=N/C(=C\c2ccccc2O)C(=O)N1 ?
### Response NO

### Prompt What did the test return for COc1cc2ccc(C(C)NCC#N)cc2cc1OC (configuration not stated) ?
### Response NO

### Prompt What did the test return for COc1ccc(CC(C)N)cc1 (configuration not stated) [PARA-METHOXYAMPHETAMINE] ?
### Response NO
